target-entity: enkephalinase B (Rattus norvegicus)
Sequence (O55096 2-738 limits assumed): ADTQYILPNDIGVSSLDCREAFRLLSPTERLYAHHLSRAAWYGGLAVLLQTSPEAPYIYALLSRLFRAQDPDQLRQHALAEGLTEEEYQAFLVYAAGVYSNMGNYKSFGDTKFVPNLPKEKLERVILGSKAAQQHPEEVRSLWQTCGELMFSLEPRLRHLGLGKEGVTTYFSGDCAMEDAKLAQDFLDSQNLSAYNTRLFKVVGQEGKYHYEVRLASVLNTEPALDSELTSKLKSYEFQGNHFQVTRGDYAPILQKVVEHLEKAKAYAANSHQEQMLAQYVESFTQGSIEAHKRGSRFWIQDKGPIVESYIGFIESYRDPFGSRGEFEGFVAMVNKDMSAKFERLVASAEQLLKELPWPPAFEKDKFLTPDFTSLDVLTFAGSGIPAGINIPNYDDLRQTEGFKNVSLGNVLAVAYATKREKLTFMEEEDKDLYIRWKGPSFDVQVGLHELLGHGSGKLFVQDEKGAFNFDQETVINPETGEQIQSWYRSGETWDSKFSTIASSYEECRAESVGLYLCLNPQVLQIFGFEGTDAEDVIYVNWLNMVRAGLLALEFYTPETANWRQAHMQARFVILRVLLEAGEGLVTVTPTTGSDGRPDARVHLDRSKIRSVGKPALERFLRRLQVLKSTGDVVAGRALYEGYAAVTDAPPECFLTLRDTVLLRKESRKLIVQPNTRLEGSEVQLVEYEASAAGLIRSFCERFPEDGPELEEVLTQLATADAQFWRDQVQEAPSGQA
value-type: pKi
pKi here is simply -log10 of the concentration when that concentration is written in mol/L.

Report value: pKi, system: enkephalinase B (Rattus norvegicus), compound: CCC[C@H](CC(=O)NO)C(=O)N1CCC[C@H]1C(=O)N[C@H](C(=O)O)C(C)C [Propioxatin A]
7.89
